target: TRPA1 (Homo sapiens, UniProt O75762); construct: expressed in transfected cells; assay: In vitro Fluo8-NW calcium assay (FLIPR) on HEK293T cells stably overexpressing TRPA1; assay type: cell-based; settings: single dose, qualitative
Sequence (O75762 whole entry): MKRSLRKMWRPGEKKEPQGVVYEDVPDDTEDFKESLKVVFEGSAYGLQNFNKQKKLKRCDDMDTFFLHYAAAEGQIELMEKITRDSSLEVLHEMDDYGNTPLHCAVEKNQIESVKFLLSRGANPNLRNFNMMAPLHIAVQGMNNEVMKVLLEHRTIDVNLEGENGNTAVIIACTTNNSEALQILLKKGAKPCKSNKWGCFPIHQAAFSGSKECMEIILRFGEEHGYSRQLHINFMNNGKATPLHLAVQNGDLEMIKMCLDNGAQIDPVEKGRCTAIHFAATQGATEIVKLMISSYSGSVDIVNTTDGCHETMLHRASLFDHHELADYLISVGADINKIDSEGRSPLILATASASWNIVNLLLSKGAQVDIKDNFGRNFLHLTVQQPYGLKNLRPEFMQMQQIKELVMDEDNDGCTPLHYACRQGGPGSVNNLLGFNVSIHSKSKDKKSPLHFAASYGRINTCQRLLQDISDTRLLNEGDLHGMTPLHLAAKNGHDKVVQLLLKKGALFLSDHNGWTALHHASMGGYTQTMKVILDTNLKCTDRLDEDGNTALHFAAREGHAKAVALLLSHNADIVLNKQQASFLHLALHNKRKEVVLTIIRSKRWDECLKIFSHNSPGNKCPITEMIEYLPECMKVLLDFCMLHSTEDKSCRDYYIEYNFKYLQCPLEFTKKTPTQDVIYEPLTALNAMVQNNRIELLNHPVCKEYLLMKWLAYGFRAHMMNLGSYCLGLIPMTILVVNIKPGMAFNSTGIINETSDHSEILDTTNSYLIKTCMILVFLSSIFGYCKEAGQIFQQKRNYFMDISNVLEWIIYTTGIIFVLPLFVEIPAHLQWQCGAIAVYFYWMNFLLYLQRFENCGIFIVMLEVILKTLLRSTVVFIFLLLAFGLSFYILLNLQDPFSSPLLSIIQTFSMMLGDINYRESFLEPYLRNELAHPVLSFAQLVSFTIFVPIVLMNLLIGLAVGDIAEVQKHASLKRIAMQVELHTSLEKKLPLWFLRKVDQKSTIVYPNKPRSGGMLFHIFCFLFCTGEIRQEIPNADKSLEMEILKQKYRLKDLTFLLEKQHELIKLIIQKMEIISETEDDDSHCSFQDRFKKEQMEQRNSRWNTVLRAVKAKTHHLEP
reported_property: TRPA1 screening result

Here's what some known entries look like.
{"columns": ["compound", "result"],
 "data": [
  ["COc1cc2nc3occc3c(OC)c2cc1OC", "−"],
  ["C=CC(C)(C)c1cc2cc3c(cc2oc1=O)OC(C(C)(C)OC(C)=O)C3 (stereo not drawn)", "−"],
  ["COc1c2ccoc2cc2oc(=O)ccc12", "−"],
  ["CCCCCCCC(C)=O", "−"],
  ["C[C@@H]1O[C@@H](OC[C@H]2O[C@@H](Oc3c(-c4ccc(O)c(O)c4)oc4cc(O)cc(O)c4c3=O)[C@H](O)[C@@H](O)[C@@H]2O)[C@H](O)[C@H](O)[C@H]1O", "−"],
  ["CCCCCCCCCC(C)=O", "−"],
  ["COc1ccc2c(OC)c3ccoc3nc2c1OC", "−"],
  ["COc1c2occc2cc2ccc(=O)oc12", "+"]
]}

Now let's try a different one.
Given the compound "COc1c2ccoc2c(OC)c2oc(=O)ccc12" , write its reported TRPA1 screening result.
+

* * *

target: TRPM8 (Homo sapiens, UniProt Q7Z2W7); test: In vitro Fluo8-NW calcium assay (FLIPR) on HEK293T cells stably overexpressing TRPM8; conditions: concentration/response curve
Sequence (Q7Z2W7 whole entry): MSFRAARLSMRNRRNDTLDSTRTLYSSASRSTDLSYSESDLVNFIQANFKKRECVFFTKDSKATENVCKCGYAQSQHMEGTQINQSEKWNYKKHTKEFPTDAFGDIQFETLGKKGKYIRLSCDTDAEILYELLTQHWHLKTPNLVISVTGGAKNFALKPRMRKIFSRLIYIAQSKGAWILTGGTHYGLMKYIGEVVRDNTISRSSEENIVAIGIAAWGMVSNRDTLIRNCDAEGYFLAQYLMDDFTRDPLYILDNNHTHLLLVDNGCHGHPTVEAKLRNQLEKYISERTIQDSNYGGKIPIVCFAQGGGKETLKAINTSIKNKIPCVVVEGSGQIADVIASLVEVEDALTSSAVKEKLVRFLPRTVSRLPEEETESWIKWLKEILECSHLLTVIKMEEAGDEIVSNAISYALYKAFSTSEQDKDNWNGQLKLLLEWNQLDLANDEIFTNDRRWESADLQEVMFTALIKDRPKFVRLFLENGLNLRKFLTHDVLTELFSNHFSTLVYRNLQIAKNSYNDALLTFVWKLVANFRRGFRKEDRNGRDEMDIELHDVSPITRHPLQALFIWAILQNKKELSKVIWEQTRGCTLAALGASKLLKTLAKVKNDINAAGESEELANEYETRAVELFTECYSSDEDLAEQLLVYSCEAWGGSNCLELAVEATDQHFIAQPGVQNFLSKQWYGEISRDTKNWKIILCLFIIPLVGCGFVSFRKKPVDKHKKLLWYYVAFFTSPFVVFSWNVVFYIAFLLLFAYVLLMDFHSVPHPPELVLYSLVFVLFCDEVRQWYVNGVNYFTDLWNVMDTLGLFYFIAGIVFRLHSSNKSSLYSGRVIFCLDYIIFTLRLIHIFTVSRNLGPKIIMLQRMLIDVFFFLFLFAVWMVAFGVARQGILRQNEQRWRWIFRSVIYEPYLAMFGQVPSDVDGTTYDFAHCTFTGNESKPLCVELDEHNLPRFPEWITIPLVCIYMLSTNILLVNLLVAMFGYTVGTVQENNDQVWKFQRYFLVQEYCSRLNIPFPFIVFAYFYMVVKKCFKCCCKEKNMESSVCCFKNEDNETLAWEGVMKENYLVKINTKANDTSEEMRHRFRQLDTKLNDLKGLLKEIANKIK
reported_property: EC50 (µM)
Could you give me the number in µM? Just the number is fine.

Given the compound CCNC(=O)C1CC(C)CCC1C(C)C (stereo not shown) [WS3, reference compound] , write its reported EC50.
4

* * *

molecular target: TAS2R14 (Homo sapiens, UniProt Q9NYV8); construct: expressed in transfected cells; host or cells: HEK293T; assay: In vitro calcium imaging assay on cloned TAS2R14 in transfected HEK293T cells; type: cell-based; conditions: concentration/response curve; values with ≥ estimated, curve did not saturate; read-out: EC50 TAS2R14
Sequence (Q9NYV8 whole entry): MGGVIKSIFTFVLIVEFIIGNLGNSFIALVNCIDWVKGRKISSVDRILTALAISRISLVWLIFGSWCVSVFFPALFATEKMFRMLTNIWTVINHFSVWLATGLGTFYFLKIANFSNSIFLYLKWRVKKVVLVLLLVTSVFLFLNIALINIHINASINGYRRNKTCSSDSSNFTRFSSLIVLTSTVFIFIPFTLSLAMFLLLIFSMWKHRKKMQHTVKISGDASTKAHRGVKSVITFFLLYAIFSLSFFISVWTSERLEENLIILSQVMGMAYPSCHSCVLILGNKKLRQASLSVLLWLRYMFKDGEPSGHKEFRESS
reported_property: EC50 (µM)
Could you give me the number in µM? Just the number is fine.

Given the molecule COc1c2ccoc2c(OC)c2oc(=O)ccc12 [Compound 5, isopimpinellin] , write its reported EC50.
11.1

* * *

molecular target: TAS2R10 (Homo sapiens, UniProt Q9NYW0); construct: expressed in transfected cells; host or cells: HEK293T; experiment: In vitro calcium imaging assay on cloned TAS2R10 in transfected HEK293T cells; assay type: cell-based; details: single dose, qualitative
Sequence (Q9NYW0 whole entry): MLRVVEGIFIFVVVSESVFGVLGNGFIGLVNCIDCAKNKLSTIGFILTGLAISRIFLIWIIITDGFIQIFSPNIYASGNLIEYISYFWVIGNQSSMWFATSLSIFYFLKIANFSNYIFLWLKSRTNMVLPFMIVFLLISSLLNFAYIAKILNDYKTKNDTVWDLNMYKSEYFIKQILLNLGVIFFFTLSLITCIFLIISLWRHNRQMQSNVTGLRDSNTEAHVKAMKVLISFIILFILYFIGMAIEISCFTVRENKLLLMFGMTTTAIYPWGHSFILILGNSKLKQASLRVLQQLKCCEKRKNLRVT
reported_property: TAS2R10 screening result

{"columns": ["compound", "target_entity", "TAS2R10 screening result"],
 "data": [
  ["C[C@@H]1O[C@@H](OC[C@H]2O[C@@H](Oc3c(-c4ccc(O)c(O)c4)oc4cc(O)cc(O)c4c3=O)[C@H](O)[C@@H](O)[C@@H]2O)[C@H](O)[C@H](O)[C@H]1O [Compound 1, rutin]", "TAS2R10 (Homo sapiens, UniProt Q9NYW0)", "−"],
  ["C=CC(C)(C)c1cc2cc3c(cc2oc1=O)OC(C(C)(C)OC(C)=O)C3 (stereo not drawn) [Compound 2, rutamarin]", "TAS2R10 (Homo sapiens, UniProt Q9NYW0)", "−"],
  ["COc1ccc2c(OC)c3ccoc3nc2c1OC [Compound 8, skimmianine]", "TAS2R10 (Homo sapiens, UniProt Q9NYW0)", "−"],
  ["COc1c2ccoc2cc2oc(=O)ccc12 [Compound 3, bergapten]", "TAS2R10 (Homo sapiens, UniProt Q9NYW0)", "+++"],
  ["CCCCCCCCCC(C)=O [Compound 9, 2-undecanone]", "TAS2R10 (Homo sapiens, UniProt Q9NYW0)", "−"]
]}

Given the compound CCCCCCCC(C)=O [Compound 10, 2-nonanone] , write its reported TAS2R10 screening result.
−

Given the compound COc1c2ccoc2c(OC)c2oc(=O)ccc12 [Compound 5, isopimpinellin] , write its reported TAS2R10 screening result.
++

Given the compound COc1cc2nc3occc3c(OC)c2cc1OC [Compound 7, kokusaginin] , write its reported TAS2R10 screening result.
−

Given the compound COc1c2occc2cc2ccc(=O)oc12 [Compound 4, xanthotoxin] , write its reported TAS2R10 screening result.
+

* * *

tested on: twenty TAS2R bitter taste receptors; experiment: In vitro screening on the platform of twenty cloned TAS2R bitter taste receptors; assay type: cell-based, human; settings: at the tested concentration
reported_property: Response on the twenty TAS2R receptors (in words)

{"columns": ["structure", "result"],
 "data": [
  ["CCCCCCCC(C)=O", "inactive"],
  ["C[C@@H]1O[C@@H](OC[C@H]2O[C@@H](Oc3c(-c4ccc(O)c(O)c4)oc4cc(O)cc(O)c4c3=O)[C@H](O)[C@@H](O)[C@@H]2O)[C@H](O)[C@H](O)[C@H]1O", "inactive"],
  ["CCCCCCCCCC(C)=O", "inactive"]
]}
